Where do these numbers come from? They come from ChEMBL document CHEMBL1201862.

- Tested on: Malme-3M
- EXPERIMENT: NCI tumour cell line growth inhibition, 48 h
Calls of active or inactive are those of the source. No stated cut-off is given here; in the data, active = GI50 up to about 1.1 µM and inactive = higher.
Classes used: active, inactive

compound=COC(=O)/C(C#N)=C1\CCc2ccccc21 class_name=inactive
compound="CC1=C(C(=O)c2ccccc2)C23C(=O)N(c4ccccc4)C(=O)C2=C(O)C=CC3(O)N1 (stereo not given)" class_name=inactive
compound=O=C1C=CC(S(=O)(=O)C2=C/C(=C/Nc3ccc(Cl)cc3)C(=O)C=C2)=C/C1=C/Nc1ccc(Cl)cc1 class_name=inactive
compound=COC(=O)C1=C(C)NC(C)=C(C(=O)OC)C1c1ccc(/[N+]([O-])=C/c2ccccc2)cc1 class_name=inactive
compound="C/C(=N\\O)C(CN(C)C)C(c1ccccc1)c1c(O)c2ccccc2oc1=O (stereo not given)" class_name=inactive
compound="N#CCN(CC#N)C1CC=CCC1N(CC#N)CC#N (stereo not given)" class_name=inactive
compound=N#Cc1c2nc3ccccc3nc2n2ccccc12 class_name=inactive
compound="O=C(OCC(OC(=O)c1ccccc1)C(OC(=O)c1ccccc1)C(OC(=O)c1ccccc1)c1cnn(-c2ccccc2)n1)c1ccccc1 (stereo not given)" class_name=inactive
compound="CC(=O)OC[C@]1(C)CCCC2(C)C1CCC1C=C(C)[C@H]3CCC12C3 (stereo not given in full)" class_name=inactive
compound="FC(F)(F)C12C34C=CC5(CCC6(C=CC1(CC3)O6)C52C(F)(F)F)O4 (stereo not given)" class_name=inactive
compound=C/C1=C\[C@H](C)C[C@H](C)OC(=O)C[C@H](c2ccc(O)cc2)NC(=O)[C@H](Cc2ccc(O)c(Br)c2)N(C)C(=O)[C@H](C)NC(=O)[C@@H](C)C1 class_name=inactive
compound="O=C1N[C@@H]2C(=C[C@H](O)[C@@H](O)[C@H]2O)c2cc3c(c(O)c21)OCO3 [NARCICLASINE]" class_name=active
compound=N#C/N=C(/N)NCc1ccccc1 class_name=inactive
compound=O=C(/C=C/c1ccsc1)c1ccc(Cl)s1 class_name=inactive
compound=CC(C)(NO)/C(=N\O)c1ccccc1 class_name=inactive

====

The entries below come with measured GI50 values attached.
- System: UO-31
- EXPERIMENT: NCI tumour cell line growth inhibition, 48 h
Calls of active or inactive are those of the source. No stated cut-off is given here; in the data, active = GI50 up to about 1.1 µM and inactive = higher.
MEASURED_QUANTITY: GI50

test_smiles=N=c1sc(N2CCOCC2)nn1CC(=O)c1ccccc1 measured_quantity=GI50 measured_result="> 100 µM (inactive)"
test_smiles=Cc1nc(-c2ccccc2)c(-c2ccccc2)s1 measured_quantity=GI50 measured_result="20.2 µM (inactive)"
test_smiles=Nc1nc(O)c2c(ncn2CCO)n1 measured_quantity=GI50 measured_result="> 100 µM (inactive)"
test_smiles=C=C(C)[C@@H]1CC[C@@H](C)[C@](O)([C@@H]2C[C@@H]([C@H](COC(=O)c3ccccc3)OC(=O)c3ccccc3)OC2=O)C1 measured_quantity=GI50 measured_result="29 µM (inactive)"
test_smiles=O=[N+]([O-])C(=C(Nc1ccccc1)Nc1ccccc1)/C(Cl)=C(\Cl)[N+](=O)[O-] measured_quantity=GI50 measured_result="3.07 µM (inactive)"

====

- Test system: NCI-H23
- EXPERIMENT: NCI tumour cell line growth inhibition, 48 h
The source made the active and inactive calls. Cut-off read from the data, not from the text of the source: active = GI50 up to about 1.1 µM and inactive = higher.
Classes used: Y (active), N (inactive)

compound=O=C(Cc1nc2ccc(C(=O)c3ccccc3)cc2nc1O)C(=O)Nc1ccc(C(F)(F)F)cc1[N+](=O)[O-] class_name=N
compound=Cc1ccc2nc(CN3CCCCC3)cc(=O)n2c1 class_name=N
compound="CC(C(=O)c1ccc(O)cc1)C1(O)C(=O)Nc2c(Cl)cc(Cl)cc21 (stereo not drawn)" class_name=N
compound=CC(=O)/C=C1\Nc2ccccc2N\C1=C/C(C)=O class_name=N
compound="COc1ccc(C(=O)NCCC2CN(S(=O)(=O)C(F)(F)F)c3ccccc32)c(OC)c1 (stereo not drawn)" class_name=N
compound=CC[C@]1(O)C[C@H]2CN(CCc3c([nH]c4ccccc34)[C@@](C(=O)OC)(c3cc4c(cc3OC)N(C)[C@H]3[C@@](O)(C(=O)OC)[C@H](OC(C)=O)[C@]5(CC)C=CCN6CC[C@]43[C@@H]65)C2)C1 class_name=Y
compound=CC1=C(/C=C/C(C)=C/C=C/C(C)=C/C(=O)O)C(C)(C)CCC1 class_name=N
compound=CCc1nc2c(O)ccc(O)c2nc1C class_name=N
compound="OC(c1cc(-c2ccc(Cl)cc2)nc2ccccc12)C1CCCCN1 (stereo not drawn)" class_name=N
compound=COc1ccc(-n2c(N)c(C#N)c(C#N)c2-c2ccccc2)cc1 class_name=N
compound=NC1=NS(=O)(=O)Nc2nc(-c3ccccc3)c(-c3ccccc3)nc21 class_name=N
compound="Cc1ccc(OCC2OC(n3cnc4nc(Cl)nc(Cl)c43)CC2Oc2ccc(C)cc2)cc1 (stereo not drawn)" class_name=N
compound=Oc1ccc(/C=C/c2cc(O)cc(O)c2)cc1 class_name=N
compound="OC[C@H]1CC(c2nn[nH]n2)[C@H](O)[C@@H]1O (stereo partly drawn)" class_name=N
compound="CCOC(=O)[C@H]1Nc2ccc(C)cc2C2c3ccccc3CC21 (stereo partly drawn)" class_name=N
compound="CNC(=O)C1CCC(=O)N1CN(C(C)=O)c1ccccc1 (stereo not drawn)" class_name=N
compound=CCc1n[nH]c(=O)n1CCO class_name=N
compound="N#Cc1ccc(C2NN=CC23C(=O)c2ccccc2OC3c2ccccc2)cc1 (stereo not drawn)" class_name=N
compound=CCC/N=C(/NC(=O)c1ccc(Cl)cc1)SC class_name=N
compound=CC(=O)CC(=O)CCC(=O)O class_name=N
compound=C[n+]1c2ccccc2c(C(=O)Nc2ccc(S(=O)(=O)Nc3ncccn3)cc2)c2ccccc21 class_name=N
compound="COC(=O)[C@](NC(=O)OCc1ccccc1)([C@@H](C)[S+]([O-])c1ccc(C)cc1)C(F)(F)F (stereo partly drawn)" class_name=N
compound=CCSc1c(C)c2c(n(Cc3ccc(OC)cc3)c1=O)Cc1ccccc1C2 class_name=N
